# experimental-target: 5-HT1D receptor (Oryctolagus cuniculus, UniProt P49144)
# Construct: Ring segments of the vein (4-5 mm in length) were cut and the endothelium gently removed; from tissue; host or cells: rabbit saphenous vein rings, endothelium removed
# Sequence (P49144 whole entry): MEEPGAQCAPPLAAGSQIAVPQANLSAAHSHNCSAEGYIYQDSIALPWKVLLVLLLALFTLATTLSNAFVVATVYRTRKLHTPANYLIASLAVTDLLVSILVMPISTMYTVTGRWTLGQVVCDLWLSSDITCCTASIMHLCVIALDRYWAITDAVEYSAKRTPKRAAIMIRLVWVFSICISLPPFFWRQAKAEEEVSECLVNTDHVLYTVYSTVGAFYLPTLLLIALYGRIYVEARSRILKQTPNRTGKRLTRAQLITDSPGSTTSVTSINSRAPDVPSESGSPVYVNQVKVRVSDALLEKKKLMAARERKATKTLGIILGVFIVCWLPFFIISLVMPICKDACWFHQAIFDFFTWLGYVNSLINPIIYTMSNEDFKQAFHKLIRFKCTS
# method-notes: Agonist assay, contraction of rabbit isolated saphenous vein
# Set-up: species or system rabbit (male New Zealand White)
# setup-conditions: rabbit isolated saphenous vein; 50% of the maximum contraction effected by the compound; with prazosin, idazoxan, indomethacin 1 μM; read-out: EC50
Lab note: cut-off is 800 nM. Strictly less in EC50 is 1 (yes). Exactly 800 nM or more is 0 (no).

INSERT INTO results (molecule, answer_label) VALUES
  ('CN1CCC(c2c[nH]c3ccc(-c4cccs4)cc23)C1 (racemic) [Compound 8]', '0 (no)'),
  ('NCCc1c[nH]c2ccc(-c3cccs3)cc12 [Compound 7, 3-(2-Aminoethyl)-5-(2-thienyl)-1H-indole]', '1 (yes)'),
  ('CN1CCC[C@@H]1Cc1c[nH]c2ccc(-c3ccsc3)cc12 [Compound 2]', '1 (yes)'),
  ('CN1CCC[C@@H]1Cc1c[nH]c2ccc(-c3cccs3)cc12 [Compound 1]', '1 (yes)'),
  ('CN1CCC[C@H]1Cc1c[nH]c2ccc(-c3cccs3)cc12 [Compound 6]', '0 (no)'),
  ('CN(C)CC(O)c1c[nH]c2ccc(-c3ccsc3)cc12 (racemic) [Compound 10]', '0 (no)'),
  ('CN(C)CCc1c[nH]c2ccc(-c3ccsc3)cc12 [Compound 3]', '1 (yes)');

* * *

# experimental-target: 5-HT1Dα (Homo sapiens)
# Construct: expressed in transfected cells
# Sequence (P28221 whole entry): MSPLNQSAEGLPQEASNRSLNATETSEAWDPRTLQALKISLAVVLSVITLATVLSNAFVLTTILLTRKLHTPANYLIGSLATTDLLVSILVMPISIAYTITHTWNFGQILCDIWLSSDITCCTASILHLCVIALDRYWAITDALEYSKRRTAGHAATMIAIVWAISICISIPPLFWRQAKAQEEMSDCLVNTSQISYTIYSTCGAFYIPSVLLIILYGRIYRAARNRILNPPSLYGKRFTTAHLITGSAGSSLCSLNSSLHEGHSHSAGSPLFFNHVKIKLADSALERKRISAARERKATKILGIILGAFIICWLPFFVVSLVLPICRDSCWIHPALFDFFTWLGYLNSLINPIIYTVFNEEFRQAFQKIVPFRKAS
# method-notes: Binding affinity, inhibition of 3H-5-HT binding, 5-HT1Dα
# setup-conditions: 1 h, 100 nm, 60 minute at 22° C., mean of triplicate determinations
The following compounds are listed with their measured inhibition at 0.1 µM values.
attribute-measured: inhibition at 0.1 µM (%)

INSERT INTO measurements (compound, attribute_measured, unit_descriptor, reported_result) VALUES
  ('NCCc1c[nH]c2ccc(-c3cccs3)cc12', 'inhibition at 0.1 µM', '%', 98),
  ('CN1CCC[C@@H]1Cc1c[nH]c2ccc(-c3ccsc3)cc12', 'inhibition at 0.1 µM', '%', 99),
  ('CN1CCC[C@@H]1Cc1c[nH]c2ccc(-c3cccs3)cc12', 'inhibition at 0.1 µM', '%', 98),
  ('Cc1ccc(-c2ccc3[nH]cc(CCN(C)C)c3c2)s1', 'inhibition at 0.1 µM', '%', 87),
  ('CN(C)CCc1c[nH]c2ccc(-c3ccc(CO)s3)cc12', 'inhibition at 0.1 µM', '%', 96),
  ('CN1CCC(c2c[nH]c3ccc(-c4cccs4)cc23)C1 (racemic)', 'inhibition at 0.1 µM', '%', 95),
  ('CN(C)CCc1c[nH]c2ccc(-c3ccc(Cl)s3)cc12', 'inhibition at 0.1 µM', '%', 97),
  ('CN(C)CCc1c[nH]c2ccc(-c3ccsc3)cc12', 'inhibition at 0.1 µM', '%', 98),
  ('c1csc(-c2ccc3[nH]cc(CCN4CCCC4)c3c2)c1', 'inhibition at 0.1 µM', '%', 84);

* * *

# experimental-target: 5-HT1Dα (Homo sapiens)
# Construct: expressed in transfected cells
# method-notes: Binding affinity, inhibition of 3H-5-HT binding, 5-HT1Dα
# setup-conditions: 1 h, 100 nm, 60 minute at 22° C., mean of triplicate determinations
attribute-measured: inhibition at 0.1 µM (%)

INSERT INTO assay_data (compound, unit_descriptor, reported_result) VALUES
  ('CN1CCC[C@H]1Cc1c[nH]c2ccc(-c3cccs3)cc12 [Compound 6]', '%', 96),
  ('CN(C)CC(O)c1c[nH]c2ccc(-c3ccsc3)cc12 (racemic) [Compound 10]', '%', 93),
  ('CN(C)CCc1c[nH]c2ccc(-c3cccs3)cc12 [Compound 4]', '%', 97);

* * *

# experimental-target: 5-HT1Dβ (Homo sapiens, UniProt P28222)
# Construct: expressed in transfected cells
# Sequence (P28222 whole entry): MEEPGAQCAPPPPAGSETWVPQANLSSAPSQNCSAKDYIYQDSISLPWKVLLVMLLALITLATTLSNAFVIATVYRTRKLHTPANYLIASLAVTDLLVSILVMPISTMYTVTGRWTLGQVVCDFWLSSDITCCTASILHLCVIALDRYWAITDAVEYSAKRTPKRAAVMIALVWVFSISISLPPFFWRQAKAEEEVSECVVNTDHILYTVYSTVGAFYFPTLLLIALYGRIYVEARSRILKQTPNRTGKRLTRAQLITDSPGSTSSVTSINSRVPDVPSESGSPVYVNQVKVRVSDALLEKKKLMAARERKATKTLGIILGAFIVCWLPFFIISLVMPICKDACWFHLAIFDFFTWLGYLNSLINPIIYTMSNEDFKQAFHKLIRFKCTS
# method-notes: Binding affinity, inhibition of 3H-5-HT binding, 5-HT1Dβ
# setup-conditions: 1 h, 100 nm, 60 minute at 22° C., mean of triplicate determinations
Classification field: enter Yes for inhibition at 0.1 µM values not below 80%, No for values below it.

INSERT INTO measurements (molecule, answer_label) VALUES
  ('CN1CCC(c2c[nH]c3ccc(-c4cccs4)cc23)C1 (racemic)', 'No'),
  ('CN1CCC[C@@H]1Cc1c[nH]c2ccc(-c3ccsc3)cc12', 'Yes'),
  ('CN(C)CCc1c[nH]c2ccc(-c3ccc(CO)s3)cc12', 'No'),
  ('CN1CCC[C@H]1Cc1c[nH]c2ccc(-c3cccs3)cc12', 'No'),
  ('Cc1ccc(-c2ccc3[nH]cc(CCN(C)C)c3c2)s1', 'No'),
  ('CN(C)CCc1c[nH]c2ccc(-c3cccs3)cc12', 'No'),
  ('CN1CCC[C@@H]1Cc1c[nH]c2ccc(-c3cccs3)cc12', 'Yes'),
  ('CN(C)CCc1c[nH]c2ccc(-c3ccc(Cl)s3)cc12', 'Yes'),
  ('CN(C)CC(O)c1c[nH]c2ccc(-c3ccsc3)cc12 (racemic)', 'No'),
  ('c1csc(-c2ccc3[nH]cc(CCN4CCCC4)c3c2)c1', 'No');
